Conditions: in DMF, 308.15 K
measured-quantity: solubility (mole fraction)

- given-smiles: "Cl.O=C(O)c1cn(-c2ccc(F)cc2)c2cc(N3CCNCC3)c(F)cc2c1=O"
  measured-quantity: "solubility (mole fraction)"
  numeric-result: 0.00259

====

Conditions: in acetonitrile, 313.15 K
measured-quantity: solubility (mole fraction)

- given-smiles: "Cl.O=C(O)c1cn(-c2ccc(F)cc2)c2cc(N3CCNCC3)c(F)cc2c1=O"
  numeric-result: 0.00034

====

Conditions: in ethyl acetate, 288.15 K
measured-quantity: solubility (mole fraction)

- given-smiles: "Cl.O=C(O)c1cn(-c2ccc(F)cc2)c2cc(N3CCNCC3)c(F)cc2c1=O"
  numeric-result: 0.00476

====

Conditions: in ethyl acetate, 298.15 K

- given-smiles: "Cl.O=C(O)c1cn(-c2ccc(F)cc2)c2cc(N3CCNCC3)c(F)cc2c1=O"
  solubility (mole fraction): 0.00627

====

Conditions: in methanol, 303.15 K

- given-smiles: "Cl.O=C(O)c1cn(-c2ccc(F)cc2)c2cc(N3CCNCC3)c(F)cc2c1=O"
  solubility (mole fraction): 0.00294

====

Conditions: in ethanol, 333.15 K

- given-smiles: "Cl.O=C(O)c1cn(-c2ccc(F)cc2)c2cc(N3CCNCC3)c(F)cc2c1=O"
  solubility (mole fraction): 0.0008

====

Details: in ethyl acetate, 318.15 K
measured-quantity: solubility (mole fraction)

- given-smiles: "Cl.O=C(O)c1cn(-c2ccc(F)cc2)c2cc(N3CCNCC3)c(F)cc2c1=O"
  measured-quantity: "solubility (mole fraction)"
  result: 0.0109

====

Details: in acetonitrile, 278.15 K
measured-quantity: solubility (mole fraction)

- given-smiles: "Cl.O=C(O)c1cn(-c2ccc(F)cc2)c2cc(N3CCNCC3)c(F)cc2c1=O"
  measured-quantity: "solubility (mole fraction)"
  numeric-result: 0.00011

====

Conditions: in isopropanol, 308.15 K

- given-smiles: "Cl.O=C(O)c1cn(-c2ccc(F)cc2)c2cc(N3CCNCC3)c(F)cc2c1=O"
  solubility (mole fraction): 0.00123

====

Conditions: in ethanol, 298.15 K

- given-smiles: "Cl.O=C(O)c1cn(-c2ccc(F)cc2)c2cc(N3CCNCC3)c(F)cc2c1=O"
  solubility (mole fraction): 0.00033

====

Conditions: in n-butanol, 313.15 K

- given-smiles: "Cl.O=C(O)c1cn(-c2ccc(F)cc2)c2cc(N3CCNCC3)c(F)cc2c1=O"
  solubility (mole fraction): 0.00312

====

Conditions: in isopropanol, 298.15 K

- given-smiles: "Cl.O=C(O)c1cn(-c2ccc(F)cc2)c2cc(N3CCNCC3)c(F)cc2c1=O"
  solubility (mole fraction): 0.00098

====

Details: in methanol, 328.15 K

- given-smiles: "Cl.O=C(O)c1cn(-c2ccc(F)cc2)c2cc(N3CCNCC3)c(F)cc2c1=O"
  solubility (mole fraction): 0.00502

====

Conditions: in methanol, 288.15 K
measured-quantity: solubility (mole fraction)

- given-smiles: "Cl.O=C(O)c1cn(-c2ccc(F)cc2)c2cc(N3CCNCC3)c(F)cc2c1=O"
  numeric-result: 0.00211

====

Conditions: in ethanol, 283.15 K

- given-smiles: "Cl.O=C(O)c1cn(-c2ccc(F)cc2)c2cc(N3CCNCC3)c(F)cc2c1=O"
  solubility (mole fraction): 0.00022

====

Details: in methanol, 283.15 K

- given-smiles: "Cl.O=C(O)c1cn(-c2ccc(F)cc2)c2cc(N3CCNCC3)c(F)cc2c1=O"
  solubility (mole fraction): 0.00194

====

Settings: in ethanol, 303.15 K
measured-quantity: solubility (mole fraction)

- given-smiles: "Cl.O=C(O)c1cn(-c2ccc(F)cc2)c2cc(N3CCNCC3)c(F)cc2c1=O"
  result: 0.00037

====

Details: in n-butanol, 323.15 K

- given-smiles: "Cl.O=C(O)c1cn(-c2ccc(F)cc2)c2cc(N3CCNCC3)c(F)cc2c1=O"
  solubility (mole fraction): 0.00379

====

Settings: in n-hexane, 308.15 K
measured-quantity: solubility (mole fraction)

- given-smiles: "Cl.O=C(O)c1cn(-c2ccc(F)cc2)c2cc(N3CCNCC3)c(F)cc2c1=O"
  numeric-result: 0.00075

====

Conditions: in n-butanol, 298.15 K
measured-quantity: solubility (mole fraction)

- given-smiles: "Cl.O=C(O)c1cn(-c2ccc(F)cc2)c2cc(N3CCNCC3)c(F)cc2c1=O"
  numeric-result: 0.00224

====

Conditions: in isopropanol, 288.15 K

- given-smiles: "Cl.O=C(O)c1cn(-c2ccc(F)cc2)c2cc(N3CCNCC3)c(F)cc2c1=O"
  solubility (mole fraction): 0.00072

====

Conditions: in methanol, 308.15 K

- given-smiles: "Cl.O=C(O)c1cn(-c2ccc(F)cc2)c2cc(N3CCNCC3)c(F)cc2c1=O"
  solubility (mole fraction): 0.0033

====

Details: in DMF, 318.15 K

- given-smiles: "Cl.O=C(O)c1cn(-c2ccc(F)cc2)c2cc(N3CCNCC3)c(F)cc2c1=O"
  solubility (mole fraction): 0.00324

====

Settings: in methanol, 313.15 K

- given-smiles: "Cl.O=C(O)c1cn(-c2ccc(F)cc2)c2cc(N3CCNCC3)c(F)cc2c1=O"
  solubility (mole fraction): 0.00369

====

Conditions: in DMF, 283.15 K

- given-smiles: "Cl.O=C(O)c1cn(-c2ccc(F)cc2)c2cc(N3CCNCC3)c(F)cc2c1=O"
  solubility (mole fraction): 0.00148

====

Details: in isopropanol, 313.15 K

- given-smiles: "Cl.O=C(O)c1cn(-c2ccc(F)cc2)c2cc(N3CCNCC3)c(F)cc2c1=O"
  solubility (mole fraction): 0.00134

====

Conditions: in isopropanol, 283.15 K
measured-quantity: solubility (mole fraction)

- given-smiles: "Cl.O=C(O)c1cn(-c2ccc(F)cc2)c2cc(N3CCNCC3)c(F)cc2c1=O"
  numeric-result: 0.00059

====

Conditions: in acetonitrile, 303.15 K

- given-smiles: "Cl.O=C(O)c1cn(-c2ccc(F)cc2)c2cc(N3CCNCC3)c(F)cc2c1=O"
  solubility (mole fraction): 0.00024

====

Settings: in DMF, 328.15 K

- given-smiles: "Cl.O=C(O)c1cn(-c2ccc(F)cc2)c2cc(N3CCNCC3)c(F)cc2c1=O"
  solubility (mole fraction): 0.00397

====

Conditions: in acetonitrile, 288.15 K

- given-smiles: "Cl.O=C(O)c1cn(-c2ccc(F)cc2)c2cc(N3CCNCC3)c(F)cc2c1=O"
  solubility (mole fraction): 0.00014

====

Settings: in n-butanol, 328.15 K

- given-smiles: "Cl.O=C(O)c1cn(-c2ccc(F)cc2)c2cc(N3CCNCC3)c(F)cc2c1=O"
  solubility (mole fraction): 0.00419

====

Settings: in DMF, 288.15 K
measured-quantity: solubility (mole fraction)

- given-smiles: "Cl.O=C(O)c1cn(-c2ccc(F)cc2)c2cc(N3CCNCC3)c(F)cc2c1=O"
  measured-quantity: "solubility (mole fraction)"
  numeric-result: 0.00164

====

Details: in ethyl acetate, 283.15 K
measured-quantity: solubility (mole fraction)

- given-smiles: "Cl.O=C(O)c1cn(-c2ccc(F)cc2)c2cc(N3CCNCC3)c(F)cc2c1=O"
  numeric-result: 0.00422

====

Settings: in n-butanol, 333.15 K
measured-quantity: solubility (mole fraction)

- given-smiles: "Cl.O=C(O)c1cn(-c2ccc(F)cc2)c2cc(N3CCNCC3)c(F)cc2c1=O"
  numeric-result: 0.00463

====

Settings: in n-butanol, 283.15 K

- given-smiles: "Cl.O=C(O)c1cn(-c2ccc(F)cc2)c2cc(N3CCNCC3)c(F)cc2c1=O"
  solubility (mole fraction): 0.00162

====

Conditions: in acetonitrile, 283.15 K
measured-quantity: solubility (mole fraction)

- given-smiles: "Cl.O=C(O)c1cn(-c2ccc(F)cc2)c2cc(N3CCNCC3)c(F)cc2c1=O"
  numeric-result: 0.00012

====

Conditions: in DMF, 278.15 K

- given-smiles: "Cl.O=C(O)c1cn(-c2ccc(F)cc2)c2cc(N3CCNCC3)c(F)cc2c1=O"
  solubility (mole fraction): 0.00136

====

Conditions: in n-butanol, 278.15 K

- given-smiles: "Cl.O=C(O)c1cn(-c2ccc(F)cc2)c2cc(N3CCNCC3)c(F)cc2c1=O"
  solubility (mole fraction): 0.00148

====

Conditions: in n-hexane, 303.15 K

- given-smiles: "Cl.O=C(O)c1cn(-c2ccc(F)cc2)c2cc(N3CCNCC3)c(F)cc2c1=O"
  solubility (mole fraction): 0.00063

====

Details: in DMF, 298.15 K

- given-smiles: "Cl.O=C(O)c1cn(-c2ccc(F)cc2)c2cc(N3CCNCC3)c(F)cc2c1=O"
  solubility (mole fraction): 0.00205

These entries and their values trace back to BigSolDB 2.1.
